Where do these numbers come from? They come from patent US7985744B2.

Listing of recorded Blood ionized calcium level by entry.
Assay: Blood ionized calcium level in mice after percutaneous administration (Test Examples 1 and 3)
Type: in vivo
Conditions: Test Example 3; Balb/c mice, percutaneous single application, dose 1000 μg/kg, blood taken two days after administration, mean values
Numbers only here, please. The scale is mmol/L.

As a guide, the following entries are already answered.
[
  {
    "COMPOUND": "C=C1C(=CC=C2CCCC3(C)C(C(C)OCC(=O)OC(C)(C)CCC)=CCC23)CC(O)CC1O (centres unmarked)",
    "READOUT": "Blood ionized calcium level",
    "UNIT_SPEC": "mmol/L",
    "VALUE": 1.39
  },
  {
    "COMPOUND": "C=C1/C(=C\\C=C2/CCC[C@]3(C)C([C@H](C)OCC(=O)OC(C)(CC)CC)=CC[C@@H]23)C[C@@H](O)C[C@@H]1O",
    "READOUT": "Blood ionized calcium level",
    "UNIT_SPEC": "mmol/L",
    "VALUE": 1.57
  },
  {
    "COMPOUND": "C=C1/C(=C\\C=C2/CCC[C@]3(C)C([C@H](C)OCC(=O)NCC(F)(F)C(F)(F)F)=CC[C@@H]23)C[C@@H](O)C[C@@H]1O",
    "READOUT": "Blood ionized calcium level",
    "UNIT_SPEC": "mmol/L",
    "VALUE": 1.58
  }
]

Query: // lookup Blood ionized calcium level for C=C1C(=CC=C2CCCC3(C)C2CCC3C(C)OCC(=O)OC(C)(CC)CC)CC(O)CC1O (centres unmarked)
Response: 1.55

Query: So what does the record say about Blood ionized calcium level for C=C1C(=CC=C2CCCC3(C)C(C(C)OCCC(=O)OC(C)(CC)CC)=CCC23)CC(O)CC1O (centres unmarked) ?
Response: 1.42
